// reported IC50 per item
molecular target: DNA-directed RNA polymerase I subunit RPA1 (Homo sapiens); conditions: u2os
Sequence (O95602 whole entry): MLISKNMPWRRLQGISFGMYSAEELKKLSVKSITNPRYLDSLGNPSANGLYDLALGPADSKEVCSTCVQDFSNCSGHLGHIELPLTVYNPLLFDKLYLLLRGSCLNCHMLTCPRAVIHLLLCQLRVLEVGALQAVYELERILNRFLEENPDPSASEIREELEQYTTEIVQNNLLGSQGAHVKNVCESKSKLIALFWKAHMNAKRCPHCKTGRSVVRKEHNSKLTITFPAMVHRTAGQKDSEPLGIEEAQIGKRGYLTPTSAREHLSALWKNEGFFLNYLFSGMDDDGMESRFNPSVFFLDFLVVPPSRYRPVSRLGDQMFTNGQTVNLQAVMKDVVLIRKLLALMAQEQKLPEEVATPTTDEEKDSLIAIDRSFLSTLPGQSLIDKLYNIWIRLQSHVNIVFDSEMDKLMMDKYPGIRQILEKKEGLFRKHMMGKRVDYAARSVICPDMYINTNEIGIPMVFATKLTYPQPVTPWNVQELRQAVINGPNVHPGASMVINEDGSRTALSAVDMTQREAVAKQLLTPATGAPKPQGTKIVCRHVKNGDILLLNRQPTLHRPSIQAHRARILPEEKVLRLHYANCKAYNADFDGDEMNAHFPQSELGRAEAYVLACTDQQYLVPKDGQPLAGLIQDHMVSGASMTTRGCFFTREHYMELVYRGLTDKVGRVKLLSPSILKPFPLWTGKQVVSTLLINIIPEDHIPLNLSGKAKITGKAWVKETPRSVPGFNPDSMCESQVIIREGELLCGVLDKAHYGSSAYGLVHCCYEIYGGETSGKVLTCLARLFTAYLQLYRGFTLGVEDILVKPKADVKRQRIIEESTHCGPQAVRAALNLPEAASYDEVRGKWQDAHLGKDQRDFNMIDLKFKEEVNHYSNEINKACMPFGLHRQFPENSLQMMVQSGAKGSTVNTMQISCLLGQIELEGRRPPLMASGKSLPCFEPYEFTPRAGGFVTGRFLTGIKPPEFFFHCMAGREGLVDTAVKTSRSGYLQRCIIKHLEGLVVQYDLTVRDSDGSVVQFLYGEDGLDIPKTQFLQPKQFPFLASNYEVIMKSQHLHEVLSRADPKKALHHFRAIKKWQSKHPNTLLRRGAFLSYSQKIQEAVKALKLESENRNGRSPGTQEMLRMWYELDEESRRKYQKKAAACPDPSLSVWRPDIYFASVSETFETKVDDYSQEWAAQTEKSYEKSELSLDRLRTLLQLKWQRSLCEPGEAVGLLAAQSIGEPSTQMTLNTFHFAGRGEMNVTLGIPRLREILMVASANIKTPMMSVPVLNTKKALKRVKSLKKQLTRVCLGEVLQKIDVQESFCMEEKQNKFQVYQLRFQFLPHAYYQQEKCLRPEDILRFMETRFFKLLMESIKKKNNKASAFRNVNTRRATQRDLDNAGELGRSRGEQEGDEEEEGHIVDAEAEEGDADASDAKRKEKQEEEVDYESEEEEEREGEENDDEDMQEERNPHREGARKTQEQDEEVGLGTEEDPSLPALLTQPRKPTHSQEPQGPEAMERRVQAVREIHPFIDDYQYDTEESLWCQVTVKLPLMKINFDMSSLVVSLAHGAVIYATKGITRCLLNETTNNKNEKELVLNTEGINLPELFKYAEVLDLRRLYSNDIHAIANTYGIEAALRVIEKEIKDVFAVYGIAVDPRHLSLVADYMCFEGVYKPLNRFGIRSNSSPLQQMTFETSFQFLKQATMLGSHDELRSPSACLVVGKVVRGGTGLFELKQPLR
Description: Induction of RNA polymerase-1 RPA194 subunit degradation in human U2OS cells after 3 hrs by epifluorescence microscopic analysis
Answer shape: numeric part, then the unit.

Tested on DNA-directed RNA polymerase I subunit RPA1 (Homo sapiens), the item CCN(CC)CCNC(=O)c1cccn2c(=O)c3ccccc3nc12 showed IC50 equal to 1.35 µM

Tested on DNA-directed RNA polymerase I subunit RPA1 (Homo sapiens), the item CCN(CC)C1CCN(C(=O)c2cccn3c(=O)c4cc5ccccc5cc4nc23)C1 (centres undefined) showed IC50 equal to 31.8 µM

Tested on DNA-directed RNA polymerase I subunit RPA1 (Homo sapiens), the item CN(C)CCOC(=O)c1cccn2c(=O)c3cc4ccccc4cc3nc12 showed IC50 equal to 50.9 µM

---
Tested on DNA-directed RNA polymerase I subunit RPA1 (Homo sapiens), the item CN(C)CCNC(=O)c1cccn2c(=O)c3ccccc3nc12 showed IC50 equal to 2.17 µM

----------
tested on: U2OS; experiment: Cytotoxicity against human U2OS cells assessed as loss of cell viability at 0.5 to 5 uM after 48 hrs by WST-1 assay; assay type: functional, cell-based
Activity calls are given as the source filed them. The rule behind the calls is not given here.
Respond using exactly one of the listed classes: yes for active, no for inactive

Dear colleague, could you share the recorded outcome for O=C(NCCN1CCOCC1)c1cccn2c(=O)c3cc4ccccc4cc3nc12 when you have a moment? no

Dear colleague, could you share the recorded outcome for CN(C)CCNC(=O)c1cccn2c(=O)c3ccccc3nc12 when you have a moment? no

Dear colleague, could you share the recorded outcome for CC(CNC(=O)c1cccn2c(=O)c3cc4ccccc4cc3nc12)N(C)C (stereo not drawn) when you have a moment? yes

Dear colleague, could you share the recorded outcome for CN(C)CCN(C)C(=O)c1cccn2c(=O)c3cc4ccccc4cc3nc12 when you have a moment? no

Dear colleague, could you share the recorded outcome for O=C(NCCN1CCCCC1)c1cccn2c(=O)c3cc4ccccc4cc3nc12 when you have a moment? yes

Dear colleague, could you share the recorded outcome for O=C(NCCN1CCCC1)c1cccn2c(=O)c3cc4ccccc4cc3nc12 when you have a moment? yes

---
Dear colleague, could you share the recorded outcome for CN(C)CCCCNC(=O)c1cccn2c(=O)c3cc4ccccc4cc3nc12 when you have a moment? no

Dear colleague, could you share the recorded outcome for CN(C)CCNC(=O)c1cccn2c(=O)c3cc4ccccc4cc3nc12 when you have a moment? yes
